system: UniProt:P41595
Sequence (P41595 whole entry): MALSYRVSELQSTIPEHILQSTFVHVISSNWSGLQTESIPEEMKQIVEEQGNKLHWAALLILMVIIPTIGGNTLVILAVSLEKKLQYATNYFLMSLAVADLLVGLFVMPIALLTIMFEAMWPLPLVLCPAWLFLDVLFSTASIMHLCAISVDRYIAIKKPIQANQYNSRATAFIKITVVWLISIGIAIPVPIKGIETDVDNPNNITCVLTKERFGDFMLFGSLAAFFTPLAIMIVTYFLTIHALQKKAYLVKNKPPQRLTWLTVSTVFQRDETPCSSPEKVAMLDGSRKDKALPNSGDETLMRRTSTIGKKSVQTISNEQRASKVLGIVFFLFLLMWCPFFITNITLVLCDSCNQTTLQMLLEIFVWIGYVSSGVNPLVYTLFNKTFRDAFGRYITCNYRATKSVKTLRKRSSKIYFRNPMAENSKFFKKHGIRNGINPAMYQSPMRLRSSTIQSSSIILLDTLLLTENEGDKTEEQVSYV
Type: cell membranes, CHO-K1, Membrane
test conditions: read-out: Ki
recorded endpoint: Ki (µM)
Give just the number in µM; leave the unit off.

CN1CCC(=C2c3ccccc3CC(=O)c3sccc32)CC1; 0.029

Query string: Provide only the value of recorded Ki for CCCCCCCCNC(C)C(O)c1ccc(SC(C)C)cc1 (centres undefined)
Result string: 0.598

Query string: Provide only the value of recorded Ki for CN(C)C(=O)C(CCN1CCC(O)(c2ccc(Cl)cc2)CC1)(c1ccccc1)c1ccccc1 [LOPERAMIDE]
Result string: 2.61

Query string: Provide only the value of recorded Ki for CN1CCN(C(c2ccccc2)c2ccccc2)CC1
Result string: 0.238
